Molecular target: T1, COVID S1 RBD Fc fusion (Antigen 1) (SARS-CoV-2, UniProt P0DTC2 319-541)
T1 construct: domain: S1 RBD
Test: phage ELISA
metric: specificity ELISA, fold over background (fold over background)
One number for each entry, in fold over background.

Worked set:
>>> value_measured("variant 2-8 (antibody, V domains shown) VH: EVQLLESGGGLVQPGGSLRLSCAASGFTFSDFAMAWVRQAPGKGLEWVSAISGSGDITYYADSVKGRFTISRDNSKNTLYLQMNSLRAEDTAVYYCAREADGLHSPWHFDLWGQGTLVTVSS VL: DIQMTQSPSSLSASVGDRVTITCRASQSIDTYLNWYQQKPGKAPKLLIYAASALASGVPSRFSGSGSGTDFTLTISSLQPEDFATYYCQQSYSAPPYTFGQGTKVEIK")
36.5
>>> value_measured("variant 2-12 (antibody, V domains shown) VH: EVQLLESGGGLVQPGGSLRLSCAASGFTFSDYPMNWVRQAPGKGLEWVSTISGSGGITFYADSVKGRFTISRDNSKNTLYLQMNSLRAEDTAVYYCVRHDEYSFDYWGQGTLVTVSS VL: DIQMTQSPSSLSASVGDRVTITCRASQSIDNYLNWYQQKPGKAPKLLIYGVSALQSGVPSRFSGSGSGTDFTLTISSLQPEDFATYYCQQSHSAPPYFFGQGTKVEIK")
40.3
>>> value_measured("variant 2-5 (antibody, V domains shown) VH: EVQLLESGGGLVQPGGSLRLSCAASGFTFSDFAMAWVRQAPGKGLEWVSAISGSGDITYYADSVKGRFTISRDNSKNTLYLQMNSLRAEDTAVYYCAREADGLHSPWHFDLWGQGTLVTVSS VL: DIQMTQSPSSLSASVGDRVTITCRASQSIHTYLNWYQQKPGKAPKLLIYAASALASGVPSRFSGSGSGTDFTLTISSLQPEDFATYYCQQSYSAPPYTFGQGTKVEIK")
35.9
>>> value_measured("variant 2-1 (antibody, V domains shown) VH: EVQLLESGGGLVQPGGSLRLSCAASGFTFSNYATDWVRQAPGKGLEWVSIISGSGGATYYADSVKGRFTISRDNSKNTLYLQMNSLRAEDTAVYYCAKGGYCSSDTCWWEYWLDPWGQGTLVTVSS VL: DIQMTQSPSSLSASVGDRVTITCRASQSIHRFLNWYQQKPGKAPKLLIYAASNLHSGVPSRFSGSGSGTDFTLTISSLQPEDFATYYCQQSYGLPPTFGQGTKVEIK")
36.8
>>> value_measured("variant 2-13 (antibody, V domains shown) VH: EVQLLESGGGLVQPGGSLRLSCAASGFTFSDYPMNWVRQAPGKGLEWVSAISGSGDNTYYADSVKGRFTISRDNSKNTLYLQMNSLRAEDTAVYYCVRHDEYSFDYWGQGTLVTVSS VL: DIQMTQSPSSLSASVGDRVTITCRASQSIDTYLNWYQQKPGKAPKLLIYGASALESGVPSRFSGSGSGTDFTLTISSLQPEDFATYYCQQSHSAPPYFFGQGTKVEIK")
32.1

Lab note: each binder below needs its specificity ELISA, fold over background filled in.
1. variant 3-10 (antibody, V domains shown) VH: EVQLLESGGGLVQPGGSLRLSCAASGFTFRSHAMSWVRQAPGKGLEWVSSISGGGASTYYADSVKGRFTISRDNSKNTLYLQMNSLRAEDTAVYYCARVKYLTTSSGWPRPYFDNWGQGTLVTVSS VL: DIQMTQSPSSLSASVGDRVTITCRASQSIRKYLNWYQQKPGKAPKLLIYASSTLQRGVPSRFSGSGSGTDFTLTISSLQPEDFATYYCQQSLSTPFTFGGGTKVEIK
2. variant 2-9 (antibody, V domains shown) VH: EVQLLESGGGLVQPGGSLRLSCAASGFTFPRYAMSWVRQAPGKGLEWVSTISGSGSTTYYADSVKGRFTISRDNSKNTLYLQMNSLRAEDTAVYYCARLIDAFDIWGQGTLVTVSS VL: DIQMTQSPSSLSASVGDRVTITCRASQRIGTYLNWYQQKPGKAPKLLIYAASNLEGGVPSRFSGSGSGTDFTLTISSLQPEDFATYYCQQNYSTTWTFGQGTKVEIK
3. variant 2-2 (antibody, V domains shown) VH: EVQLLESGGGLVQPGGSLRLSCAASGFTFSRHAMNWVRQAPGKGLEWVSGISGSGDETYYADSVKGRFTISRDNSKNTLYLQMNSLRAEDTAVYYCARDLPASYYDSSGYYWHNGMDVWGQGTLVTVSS VL: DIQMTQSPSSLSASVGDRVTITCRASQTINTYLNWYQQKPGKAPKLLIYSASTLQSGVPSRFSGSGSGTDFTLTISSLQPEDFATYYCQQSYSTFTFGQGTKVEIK
4. variant 2-4 (antibody, V domains shown) VH: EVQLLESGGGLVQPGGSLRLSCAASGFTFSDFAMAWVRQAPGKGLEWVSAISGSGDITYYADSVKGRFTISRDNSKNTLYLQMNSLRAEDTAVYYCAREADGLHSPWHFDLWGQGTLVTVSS VL: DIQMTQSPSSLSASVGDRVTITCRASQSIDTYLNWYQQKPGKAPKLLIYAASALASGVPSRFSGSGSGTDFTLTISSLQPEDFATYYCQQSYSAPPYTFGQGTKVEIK

[1.2, 24.3, 39.6, 38.8]
